The reported numbers originate from patent US10670605B2.

# Target under test: UCHL3 C95 (P15374) (Homo sapiens, UniProt P15374)
# Sequence (P15374 whole entry): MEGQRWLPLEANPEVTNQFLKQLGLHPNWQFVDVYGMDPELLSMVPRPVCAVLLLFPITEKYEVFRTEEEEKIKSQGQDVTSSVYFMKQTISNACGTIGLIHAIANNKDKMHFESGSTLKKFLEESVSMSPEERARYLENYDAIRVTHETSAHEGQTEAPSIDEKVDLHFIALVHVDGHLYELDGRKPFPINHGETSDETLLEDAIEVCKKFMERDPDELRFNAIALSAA
# Assay procedure: Competitive isoTOP-ABPP, cell lysates
# Format: binding
# Condition info: 500 μm, in-vitro_ramos
Metric name: isoTOP-ABPP reactivity ratio, P15374_C95
Respond with the number and no other words.

// lookup isoTOP-ABPP reactivity ratio, P15374_C95 | system=UCHL3 C95 (P15374) (Homo sapiens, UniProt P15374) | key= `C=CC(=O)Nc1cc(C)c(Br)cc1C` 0.9

Fill in the recorded isoTOP-ABPP reactivity ratio, P15374_C95 for this compound, with UCHL3 C95 (P15374) (Homo sapiens, UniProt P15374) as test system: `CCN(CC)c1ccc(S(N)(=O)=O)cc1NC(=O)CCl` 1.0

Test system UCHL3 C95 (P15374) (Homo sapiens, UniProt P15374); read-out isoTOP-ABPP reactivity ratio, P15374_C95; what value for `C=CC(=O)Nc1cc(F)c(N2CCN(C(=O)OC(C)(C)C)CC2)c(F)c1` ? 12.5

Lab note: need isoTOP-ABPP reactivity ratio, P15374_C95 with UCHL3 C95 (P15374) (Homo sapiens, UniProt P15374) for entry `Cc1ccc(C=C(C#N)C(=O)NCCN2CCOCC2)cc1` , please look it up. 0.8

Requested read-out isoTOP-ABPP reactivity ratio, P15374_C95, target or system UCHL3 C95 (P15374) (Homo sapiens, UniProt P15374), entry `C=CC(=O)N(Cc1cccnc1)c1cc(C(F)(F)F)cc(C(F)(F)F)c1` 0.7

Provide value of isoTOP-ABPP reactivity ratio, P15374_C95 for this record tested with UCHL3 C95 (P15374) (Homo sapiens, UniProt P15374): `CC(C)(C)c1cc(NC(=O)CCl)on1` 1.0
